Below is a list of entries, each paired with its recorded IC50 value.
target: CDK6 (Homo sapiens); assay: In vitro kinase inhibition IC50, luminescence (ADP Glo), retinoblastoma substrate; conditions: read-out: CDK6/D1 IC50
Sequence (Q00534 whole entry): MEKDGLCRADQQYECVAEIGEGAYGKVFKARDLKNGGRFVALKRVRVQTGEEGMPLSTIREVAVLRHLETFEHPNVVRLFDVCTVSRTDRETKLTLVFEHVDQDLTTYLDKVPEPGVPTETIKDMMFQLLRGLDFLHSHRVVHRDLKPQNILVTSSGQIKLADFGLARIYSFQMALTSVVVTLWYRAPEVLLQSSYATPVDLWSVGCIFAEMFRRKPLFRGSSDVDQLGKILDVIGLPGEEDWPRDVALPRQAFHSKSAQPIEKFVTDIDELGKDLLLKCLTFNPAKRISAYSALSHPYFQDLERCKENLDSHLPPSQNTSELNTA
Sequence (P24385 whole entry partner): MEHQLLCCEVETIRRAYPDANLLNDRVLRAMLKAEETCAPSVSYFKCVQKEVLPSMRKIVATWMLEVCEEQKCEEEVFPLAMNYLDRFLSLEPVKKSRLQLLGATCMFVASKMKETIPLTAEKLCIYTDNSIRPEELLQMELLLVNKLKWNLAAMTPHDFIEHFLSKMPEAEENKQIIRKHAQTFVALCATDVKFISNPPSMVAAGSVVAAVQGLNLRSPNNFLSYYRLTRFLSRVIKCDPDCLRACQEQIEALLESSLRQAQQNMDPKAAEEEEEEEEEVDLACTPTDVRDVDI

Example cases with answers are listed next.
CS(=O)(=O)N1CCC[C@@H](Nc2ncc3cc(C#N)c(=O)n(C4CCCC4)c3n2)C1
> 0.2 µM
N#Cc1cc2cnc(Nc3ccc4c(c3)CCNC4)nc2n(CC2CCCCC2)c1=O
> 0.174 µM

## Input Annotate the compound N#Cc1cc2cnc(Nc3cccc(S(=O)(=O)N4CCC(O)CC4)c3)nc2n(C2CCCC2)c1=O with its measured IC50.
## Output > 0.2 µM

## Input Annotate the compound CN(C)CC(=O)N1CCC(n2cc(Nc3ncc4cc(C#N)c(=O)n(C5CCCC5)c4n3)cn2)CC1 with its measured IC50.
## Output 0.026 µM

* * *

biological target: CDK4 (Homo sapiens); test: In vitro kinase inhibition IC50, luminescence (ADP Glo), retinoblastoma substrate; conditions: read-out: CDK4/D1 IC50
assay.metric: IC50

Example cases with answers are listed next.
N#Cc1cc2cnc(Nc3ccc4c(c3)C(=O)NCCC4)nc2n(C2CCCC2)c1=O [Compound No. 79]
> 147 nM
CN1CCN(C(=O)Cn2cc(Nc3ncc4cc(C#N)c(=O)n(C5CCCC5)c4n3)cn2)CC1 [Compound 58]
> 200 nM
CS(=O)(=O)N1CCC(Nc2ncc3cc(C(F)F)c(=O)n(C4CC5CCC4C5)c3n2)CC1 (racemic) [Compound 401]
4 nM
CC(C)N1CCc2cc(Nc3ncc4cc(C#N)c(=O)n(C5CCCC5)c4n3)ccc2C1 [Compound No. 45]
4.5 nM
N#Cc1cc2cnc(Nc3ccc4c(c3)CNCC4)cc2n(C2CCCC2)c1=O [Compound No. 95]
> 200 nM

## Input Annotate the molecule CN(C)CCN1CCC(Nc2ncc3cc(C#N)c(=O)n(C4CCCC4)c3n2)CC1 [Compound No. 67] with its measured IC50.
## Output > 140 nM

## Input Annotate the molecule CCOCCCn1c(=O)c(C#N)cc2cnc(Nc3ccc4c(c3)CCNC4)nc21 [Compound No. 343] with its measured IC50.
## Output > 200 nM

* * *

target: CDK4 (Homo sapiens, UniProt P11802); experiment: In vitro kinase inhibition IC50, luminescence (ADP Glo), retinoblastoma substrate; settings: read-out: CDK4/D1 IC50
Sequence (P11802 whole entry): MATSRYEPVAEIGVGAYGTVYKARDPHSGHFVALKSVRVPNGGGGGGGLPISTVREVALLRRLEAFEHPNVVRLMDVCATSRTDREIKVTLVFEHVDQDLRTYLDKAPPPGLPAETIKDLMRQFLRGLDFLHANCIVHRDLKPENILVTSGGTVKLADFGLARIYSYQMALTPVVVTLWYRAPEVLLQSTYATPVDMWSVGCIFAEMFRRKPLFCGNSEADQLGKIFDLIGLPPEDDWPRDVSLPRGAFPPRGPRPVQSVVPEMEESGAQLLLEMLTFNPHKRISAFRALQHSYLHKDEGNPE
Sequence (P24385 whole entry partner): as the sequence (P24385 whole entry partner) above
assay.metric: IC50 (nM)

(A) N#Cc1cc2cnc(Nc3ccc(N4CCNCC4)c(Cl)c3)nc2n(C2CCCC2)c1=O
(B) CN(C)CC(=O)N1CCc2ccc(Nc3ncc4cc(C#N)c(=O)n(C5CCCC5)c4n3)cc2C1
## Input Which item exceeds the other in IC50, A or B ? Pick one; state its label.
## Output A

(A) CN1CCc2ccc(Nc3ncc4cc(C#N)c(=O)n(C5CCCC5)c4n3)cc2C1
(B) N#Cc1cc2cnc(NC3CCN(S(=O)(=O)N4CCOCC4)CC3)nc2n(C2CCCC2)c1=O
(C) N#Cc1cc2cnc(Nc3ccc4c(c3)CCCC(=O)N4)nc2n(C2CCCC2)c1=O
(D) CS(=O)(=O)N1CCC(Nc2ncc3cc(C#N)c(=O)n(-c4c(F)cccc4F)c3n2)CC1
(E) N#Cc1cc2cnc(Nc3ccc(N4CCNCC4)c(F)c3)nc2n(C2CCCC2)c1=O
## Input Ascending sort, IC50. Order the labels as requested and give them as your answer.
## Output E, A, B, C, D
(E: 3.5 nM, A: 6.5 nM, B: 11 nM, C: 84 nM, D: 159 nM)

(P) N#Cc1cc2cnc(Nc3ccc4c(c3)CCN(CC(N)=O)C4)nc2n(C2CCCC2)c1=O
(Q) N#Cc1cc2cnc(Nc3cccc(C(N)=O)c3)nc2n(C2CCCC2)c1=O
(R) CS(=O)(=O)N1CCC(Nc2ncc3cc(C#N)c(=O)n(C4CCC4)c3n2)CC1
(S) CS(=O)(=O)N1CCC(Nc2ncc3cc(C(F)F)c(=O)n([C@H]4C[C@H]5C[C@H]5C4)c3n2)CC1
## Input Ascending sort, IC50. Order the labels as requested and give them as your answer.
## Output S, P, R, Q

(I) N#Cc1cc2cnc(Nc3ccc(N4CCC(O)CC4)c(F)c3)nc2n(C2CCCC2)c1=O
(II) CN(C)CCN1CCc2ccc(Nc3ncc4cc(C#N)c(=O)n(C5CCCC5)c4n3)cc2C1
## Input I would appreciate it if you could say which entry, I or II , has the lower IC50 value. Pick one; state its label.
## Output I
(I: 9.1 nM, II: 14 nM)

(I) N#Cc1cc2cnc(Nc3cc(F)c(N4CCNCC4)c(F)c3)nc2n(C2CCCC2)c1=O
(II) COCCN1CCc2cc(Nc3ncc4cc(C#N)c(=O)n(C5CCCC5)c4n3)ccc2C1
## Input Which item exceeds the other in IC50, I or II ? Pick one; state its label.
## Output I

(A) CN1CCC(c2ccc(Nc3cc4c(cn3)cc(C#N)c(=O)n4C3CCCC3)cc2)CC1
(B) CCC(C)n1c(=O)c(C#N)cc2cnc(NC3CCN(S(C)(=O)=O)CC3)nc21 (stereo not drawn)
## Input I would appreciate it if you could say which entry, A or B , has the lower IC50 value. Pick one; state its label.
## Output A
(A: 20 nM, B: 48 nM)

* * *

tested on: MCF-7 breast adenocarcinoma cells; assay: Cancer cell proliferation assay, single agent (cell viability); format: cell-based; conditions: Homo sapiens, MCF7, Table 4; Rb positive; treatment 144 Hr with medium change at 72 Hr; Cell Titer-Glo or resazurin
assay.metric: IC50 (nM)

N#Cc1cc2cnc(Nc3ccc(C4CCNCC4)cc3)nc2n(C2CCCC2)c1=O
353
CC(c1ccccc1)n1c(=O)c(C#N)cc2cnc(Nc3ccc(N4CCN(C)CC4)cc3)nc21 (stereo not shown)
3880
CN1CCN(c2ccc(Nc3ncc4cc(C#N)c(=O)n(C5CCCC5)c4n3)cc2F)CC1
315

(P) CC(C)N1CCc2cc(Nc3ncc4cc(C#N)c(=O)n(C5CCCC5)c4n3)ccc2C1
(Q) CCN(CC)CCOc1ccc(Nc2ncc3cc(C#N)c(=O)n(C4CCCC4)c3n2)cc1
## Input Which item exceeds the other in IC50, P or Q ? Pick one; state its label.
## Output P

* * *

system: MCF-7 breast adenocarcinoma cells; experiment: Cancer cell proliferation assay, single agent (cell viability); format: cell-based; settings: Homo sapiens, MCF7, Table 4; Rb positive; treatment 144 Hr with medium change at 72 Hr; Cell Titer-Glo or resazurin
assay.metric: IC50 (nM)

CC(C)Cn1c(=O)c(C#N)cc2cnc(Nc3ccc4c(c3)CCNC4)nc21
641

(I) CN(C)C1CCc2ccc(Nc3ncc4cc(C#N)c(=O)n(C5CCCC5)c4n3)cc2C1 (stereo not shown)
(II) CN(C)C1CCN(c2ccc(Nc3ncc4cc(C#N)c(=O)n(C5CCCC5)c4n3)cc2F)CC1
## Input Which item exceeds the other in IC50, I or II ? Pick one; state its label.
## Output I

* * *

target: CDK6 (Homo sapiens); test: In vitro kinase inhibition IC50, luminescence (ADP Glo), retinoblastoma substrate; settings: read-out: CDK6/D1 IC50
Below is a list of entries, each paired with its recorded IC50 value.
Field format: number, assumed nM, no unit text.

CC(c1ccccc1)n1c(=O)c(C#N)cc2cnc(Nc3ccc(N4CCN(C)CC4)cc3)nc21 (stereo not drawn)
91

Now examine the next entry.
## Input Annotate the molecule N#Cc1cc2cnc(Nc3ccc(N4CCNCC4)cc3)nc2n(C2CCc3ccccc32)c1=O (stereo not drawn) with its measured IC50.
## Output 12

* * *

molecular target: CDK6 (Homo sapiens); assay: In vitro kinase inhibition IC50, luminescence (ADP Glo), retinoblastoma substrate; details: read-out: CDK6/D1 IC50
Counter-ions that a name gives are not always drawn.
assay.metric: IC50 (nM)

N#Cc1cc2cnc(Nc3ccc4c(c3)CCNC4)nc2n(C2CCC2)c1=O [Compound No. 91, hydrochloride]
28

(A) N#Cc1cc2cnc(Nc3ccc(N4CCC(O)CC4)c(F)c3)nc2n(C2CCCC2)c1=O
(B) N#Cc1cc2cnc(NC3CCN(S(=O)(=O)N4CCOCC4)CC3)nc2n(C2CCCC2)c1=O
## Input I would appreciate it if you could say which entry, A or B , has the lower IC50 value. Pick one; state its label.
## Output A
(A: 4 nM, B: 6 nM)

* * *

target: FMS kinase (Homo sapiens, UniProt P07333)
Sequence (P07333 20-972): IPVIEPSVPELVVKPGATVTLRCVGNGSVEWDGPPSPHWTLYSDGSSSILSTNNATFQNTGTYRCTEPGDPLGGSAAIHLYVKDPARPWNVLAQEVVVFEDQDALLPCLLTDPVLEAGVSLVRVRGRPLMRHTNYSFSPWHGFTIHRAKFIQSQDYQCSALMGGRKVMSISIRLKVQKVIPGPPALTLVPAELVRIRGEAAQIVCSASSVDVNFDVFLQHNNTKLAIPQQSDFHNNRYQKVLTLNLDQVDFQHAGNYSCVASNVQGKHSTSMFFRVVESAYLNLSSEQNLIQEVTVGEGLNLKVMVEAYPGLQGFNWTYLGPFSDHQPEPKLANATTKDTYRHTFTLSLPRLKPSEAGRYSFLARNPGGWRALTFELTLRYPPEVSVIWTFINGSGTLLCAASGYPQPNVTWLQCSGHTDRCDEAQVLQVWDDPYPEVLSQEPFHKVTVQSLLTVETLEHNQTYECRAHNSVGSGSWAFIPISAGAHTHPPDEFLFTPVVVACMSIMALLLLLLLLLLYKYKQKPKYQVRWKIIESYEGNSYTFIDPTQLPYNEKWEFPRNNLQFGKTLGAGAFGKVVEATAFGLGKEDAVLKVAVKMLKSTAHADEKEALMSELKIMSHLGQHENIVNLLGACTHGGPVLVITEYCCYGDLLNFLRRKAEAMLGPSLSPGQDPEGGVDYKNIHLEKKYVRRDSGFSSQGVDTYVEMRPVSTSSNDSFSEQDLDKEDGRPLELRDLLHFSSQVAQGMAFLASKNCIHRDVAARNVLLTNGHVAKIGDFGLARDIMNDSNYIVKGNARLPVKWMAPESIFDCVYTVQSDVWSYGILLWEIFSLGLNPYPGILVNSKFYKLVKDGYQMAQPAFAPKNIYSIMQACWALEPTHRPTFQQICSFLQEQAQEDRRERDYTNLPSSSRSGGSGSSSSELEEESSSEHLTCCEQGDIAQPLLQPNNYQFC
pIC50: −log10 of the molar value.
assay.metric: pIC50

Example cases with answers are listed next.
N#Cc1cc2cnc(Nc3ccc4c(c3)C(=O)NCC4)nc2n(C2CCCC2)c1=O [Compound No. 6]
> 9.00
N#Cc1cc2cnc(Nc3ccc4c(c3)CCNC4)nc2n(C2CC3CC3C2)c1=O (stereo not drawn) [Compound No. 342]
> 9.00

Now examine the next entry.
## Input Tell me its pIC50 on FMS kinase (Homo sapiens, UniProt P07333): Cc1ccc(S(=O)(=O)N2CCC(Nc3ncc4cc(C#N)c(=O)n(C5CCCC5)c4n3)CC2)cc1 [Compound No. 360]
## Output < 5.30
